Experimental System: T1, hIL10Rb-his (Sino Biological, Catalog#10945) (human, UniProt Q08334 20-220)
T1 construct: Bought; also called Sino Biological cat#10945-H08H; not shown: C-terminal poly-His tag
T1 sequence: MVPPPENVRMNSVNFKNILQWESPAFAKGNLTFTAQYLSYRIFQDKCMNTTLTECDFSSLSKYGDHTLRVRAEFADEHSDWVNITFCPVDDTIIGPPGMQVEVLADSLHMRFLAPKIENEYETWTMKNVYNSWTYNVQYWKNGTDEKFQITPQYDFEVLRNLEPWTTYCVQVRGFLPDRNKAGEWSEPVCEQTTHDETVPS
Run Description: SPR; ratio of experimental to calculated Rmax
Assay Metric: Surface Activity
Kindly write the number and append the unit.

Binder: hIL-10Rb_VHH12 Mono-Fc (Fc fusion, Mono-Fc VHH captured on Protein A; not shown: mono-Fc part) QVQLQESGGGSVQAGGSLRLSCAASGYTYSSYCMGWFRQAPGKEREGVAHIDSDGSTSYADSVKGRFTISKDNAKNTLYLQMNSLKPEDTAMYYCAADPIPGPGYCDGGPNKYWGQGTQVTVSS
Surface Activity: 67%

Moving on to another binder below.
[ask] Using the record for hIL-10Rb_VHH3 Mono-Fc (Fc fusion, Mono-Fc VHH captured on Protein A; not shown: mono-Fc part) QVQLQESGGGSVQAGGSLRLSCAASRYTYNSYCMGWFRQAPGKEREGVATIDSDGMTRYADSVKGRFTISKDNAKNTLYLQMNSLKPEDTAMYYCAADADCTIAAMTTNPLGQGTQVTVSS , state its measured Surface Activity.
[reply] 52%
